- Assay Name: Tissue distribution: concentration in plasma and skeletal muscle after oral or intravenous administration
- Format: in vivo
- Test Parameters: male, Wistar, plasma; rat, oral administration of 100 mg/kg, 15 min
Readout Name: concentration at 15 min (ng/mL)
Provide the reading as a plain figure in ng/mL.

CCCCCCCCCC(=O)N[C@@H](CN1CCOCC1)[C@@H](O)c1ccccc1 [L-PDMP, reference compound] : 1360

Let us examine a further case.
Value of measured concentration at 15 min for the entry CCCCOCCOCC(=O)N[C@@H](CN1CCOCC1)[C@@H](O)c1ccccc1 : 8660

----------
- Assay Name: Tissue distribution: concentration in plasma and skeletal muscle after oral or intravenous administration
- Format: in vivo
- Test Parameters: male, Wistar, plasma; rat, oral administration of 100 mg/kg, 60 min
Below, each entry is listed with its recorded concentration at 60 min.
Provide the reading as a plain figure in ng/mL.

CCCCCCCCCC(=O)N[C@@H](CN1CCOCC1)[C@@H](O)c1ccccc1 [L-PDMP, reference compound] : 1440

Let us examine a further case.
Value of measured concentration at 60 min for the entry CCCCOCCOCC(=O)N[C@@H](CN1CCOCC1)[C@@H](O)c1ccccc1 [Example 19] : 950
